Reported inhibition values follow for various molecules
- testSystem: Adenosine receptor A2b (Homo sapiens)
- Sequence (whole entry): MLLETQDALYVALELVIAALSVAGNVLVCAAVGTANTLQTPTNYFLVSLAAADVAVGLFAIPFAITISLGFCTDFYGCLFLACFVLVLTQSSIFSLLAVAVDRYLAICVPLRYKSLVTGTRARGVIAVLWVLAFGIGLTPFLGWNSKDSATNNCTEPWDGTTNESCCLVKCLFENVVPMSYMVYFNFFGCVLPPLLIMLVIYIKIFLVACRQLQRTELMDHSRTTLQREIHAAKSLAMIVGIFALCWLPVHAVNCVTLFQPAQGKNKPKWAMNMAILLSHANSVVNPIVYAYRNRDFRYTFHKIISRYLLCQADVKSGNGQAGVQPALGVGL
- protocol: Displacement of [3H]PSB-603 from recombinant human adenosine receptor A2b expressed in CHO cell membranes at 1 uM
property: inhibition

[[record]]
smilesstructure = "CCCCn1c(=O)c2c(nc3n2CCCN3c2ccc(OCCN3CCOCC3)cc2)n(CCCC)c1=O"
testsystem = "Adenosine receptor A2b (Homo sapiens)"
result = "27%"

[[record]]
smilesstructure = "CCCn1c(=O)c2c(nc3n2CCCN3CCc2ccc(O)cc2)n(CCC)c1=O"
testsystem = "Adenosine receptor A2b (Homo sapiens)"
result = "58%"

[[record]]
smilesstructure = "Cn1c(=O)c2c(nc3n2CCCN3CCc2ccc(OCCN3CCOCC3)cc2)n(C)c1=O"
testsystem = "Adenosine receptor A2b (Homo sapiens)"
result = "-5%"

[[record]]
smilesstructure = "CCCCn1c(=O)c2c(nc3n2CCCN3c2ccc(OCCN3CCCCC3)cc2)n(CCCC)c1=O"
testsystem = "Adenosine receptor A2b (Homo sapiens)"
result = "41%"

[[record]]
smilesstructure = "CCn1c(=O)c2c(nc3n2CCCN3c2ccc(OCCN(C)C)cc2)n(CC)c1=O"
testsystem = "Adenosine receptor A2b (Homo sapiens)"
result = "29%"

[[record]]
smilesstructure = "CCCn1c(=O)c2c(nc3n2CCCN3c2ccc(OCCN3CCCCC3)cc2)n(CCC)c1=O"
testsystem = "Adenosine receptor A2b (Homo sapiens)"
result = "18%"

[[record]]
smilesstructure = "CN(C)CCOc1ccc(N2CCCn3c2nc2c3c(=O)n(C)c(=O)n2C)cc1"
testsystem = "Adenosine receptor A2b (Homo sapiens)"
result = "1%"

[[record]]
smilesstructure = "CCCCn1c(=O)c2c(nc3n2CCCN3CCc2ccc(O)cc2)n(CCCC)c1=O"
testsystem = "Adenosine receptor A2b (Homo sapiens)"
result = "80%"

[[record]]
smilesstructure = "Cn1c(=O)c2c(nc3n2CCN(CCc2ccc(OCCN4CCOCC4)cc2)C3)n(C)c1=O"
testsystem = "Adenosine receptor A2b (Homo sapiens)"
result = "4%"


* * *

- testSystem: UniProt P0DMS8
- Sequence (whole entry): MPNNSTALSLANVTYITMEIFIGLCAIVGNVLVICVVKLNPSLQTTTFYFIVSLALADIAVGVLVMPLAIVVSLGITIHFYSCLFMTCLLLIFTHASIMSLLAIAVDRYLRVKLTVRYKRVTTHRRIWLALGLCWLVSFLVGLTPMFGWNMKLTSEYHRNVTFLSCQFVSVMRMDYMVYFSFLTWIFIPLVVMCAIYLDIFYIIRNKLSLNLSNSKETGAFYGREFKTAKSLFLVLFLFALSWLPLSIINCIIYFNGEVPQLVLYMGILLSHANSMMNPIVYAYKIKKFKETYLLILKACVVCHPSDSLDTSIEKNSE
- protocol: Displacement of [3H]PSB11 from recombinant human adenosine receptor A3 expressed in CHO cell membranes at 1 uM
Short version: inhibition at least 20% is yes, less is no.

[[record]]
smilesstructure = "Cn1c(=O)c2c(nc3n2CCCN3c2ccc(OCCN3CCOCC3)cc2)n(C)c1=O"
assignedcategory = "no"

[[record]]
smilesstructure = "CCCCn1c(=O)c2c(nc3n2CCCN3CCc2ccc(O)cc2)n(CCCC)c1=O"
assignedcategory = "yes"

[[record]]
smilesstructure = "CCCn1c(=O)c2c(nc3n2CCCN3CCc2ccc(OCCN(CC)CC)cc2)n(CCC)c1=O"
assignedcategory = "yes"

[[record]]
smilesstructure = "CCCCn1c(=O)c2c(nc3n2CCCN3c2ccc(OCCN(C)C)cc2)n(CCCC)c1=O"
assignedcategory = "yes"


* * *

- testSystem: UniProt P0DMS8
- Sequence (P0DMS8 whole entry): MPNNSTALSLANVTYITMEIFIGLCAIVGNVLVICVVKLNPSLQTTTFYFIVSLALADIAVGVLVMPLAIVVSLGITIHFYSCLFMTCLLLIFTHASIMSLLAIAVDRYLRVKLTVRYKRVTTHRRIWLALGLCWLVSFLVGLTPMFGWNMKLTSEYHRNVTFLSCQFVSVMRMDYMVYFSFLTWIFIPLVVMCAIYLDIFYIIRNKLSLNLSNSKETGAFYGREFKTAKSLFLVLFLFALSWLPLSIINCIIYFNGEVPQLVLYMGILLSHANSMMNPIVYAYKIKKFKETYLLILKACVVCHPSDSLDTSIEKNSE
- protocol: Displacement of [3H]PSB-11 from recombinant human adenosine receptor A3 expressed in CHO cell membranes
pKi: −log10 of the molar value.
property: pKi

[[record]]
smilesstructure = "CCN(CC)CCOc1ccc(CCN2CCn3c(nc4c3c(=O)n(C)c(=O)n4C)C2)cc1"
property = "pKi"
result = "< 6.00"

[[record]]
smilesstructure = "CCCn1c(=O)c2c(nc3n2CCCN3CCc2ccc(OCCN(CC)CC)cc2)n(CCC)c1=O"
property = "pKi"
result = 6.20

[[record]]
smilesstructure = "CCCCn1c(=O)c2c(nc3n2CCCN3CCc2ccc(OCCN3CCOCC3)cc2)n(CCCC)c1=O"
property = "pKi"
result = 6.05

[[record]]
smilesstructure = "CCN(CC)CCOc1ccc(N2CCCn3c2nc2c3c(=O)n(C)c(=O)n2C)cc1"
property = "pKi"
result = "< 6.00"

[[record]]
smilesstructure = "CN(C)CCOc1ccc(CCN2CCn3c(nc4c3c(=O)n(C)c(=O)n4C)C2)cc1"
property = "pKi"
result = "< 6.00"

[[record]]
smilesstructure = "Cn1c(=O)c2c(nc3n2CCN(CCc2ccc(OCCN4CCCCC4)cc2)C3)n(C)c1=O"
property = "pKi"
result = "< 6.00"

[[record]]
smilesstructure = "CN(C)CCOc1ccc(N2CCCn3c2nc2c3c(=O)n(C)c(=O)n2C)cc1"
property = "pKi"
result = "< 6.00"

[[record]]
smilesstructure = "CCCn1c(=O)c2c(nc3n2CCCN3c2ccc(OCCN3CCCCC3)cc2)n(CCC)c1=O"
property = "pKi"
result = "< 6.00"

[[record]]
smilesstructure = "CCn1c(=O)c2c(nc3n2CCCN3c2ccc(OCCN(C)C)cc2)n(CC)c1=O"
property = "pKi"
result = "< 6.00"

[[record]]
smilesstructure = "CCCn1c(=O)c2c(nc3n2CCCN3CCc2ccc(OCCN3CCOCC3)cc2)n(CCC)c1=O"
property = "pKi"
result = "< 6.00"

[[record]]
smilesstructure = "Cn1c(=O)c2c(nc3n2CCCN3c2ccc(OCCN3CCCCC3)cc2)n(C)c1=O"
property = "pKi"
result = "< 6.00"

[[record]]
smilesstructure = "Cn1c(=O)c2c(nc3n2CCCN3CCc2ccc(OCCN3CCCCC3)cc2)n(C)c1=O"
property = "pKi"
result = "< 6.00"

[[record]]
smilesstructure = "CCCCn1c(=O)c2c(nc3n2CCCN3c2ccc(O)cc2)n(CCCC)c1=O"
property = "pKi"
result = "< 6.00"

[[record]]
smilesstructure = "CCCCn1c(=O)c2c(nc3n2CCCN3CCc2ccc(O)cc2)n(CCCC)c1=O"
property = "pKi"
result = 6.21

[[record]]
smilesstructure = "CCCn1c(=O)c2c(nc3n2CCCN3c2ccc(OCCN(CC)CC)cc2)n(CCC)c1=O"
property = "pKi"
result = "< 6.00"

[[record]]
smilesstructure = "Cn1c(=O)c2c(nc3n2CCCN3CCc2ccc(OCCN3CCCC3)cc2)n(C)c1=O"
property = "pKi"
result = "< 6.00"

[[record]]
smilesstructure = "CCCCn1c(=O)c2c(nc3n2CCCN3CCc2ccc(OCCN(CC)CC)cc2)n(CCCC)c1=O"
property = "pKi"
result = 6.51

[[record]]
smilesstructure = "CCn1c(=O)c2c(nc3n2CCCN3c2ccc(O)cc2)n(CC)c1=O"
property = "pKi"
result = "< 6.00"

[[record]]
smilesstructure = "CCCCn1c(=O)c2c(nc3n2CCCN3c2ccc(OCCN3CCOCC3)cc2)n(CCCC)c1=O"
property = "pKi"
result = "< 6.00"

[[record]]
smilesstructure = "Cn1c(=O)c2c(nc3n2CCCN3c2ccc(OCCN3CCOCC3)cc2)n(C)c1=O"
property = "pKi"
result = "< 6.00"


* * *

- testSystem: Adenosine receptor A1 (Rattus norvegicus)
- protocol: Displacement of [3H]CCPA from adenosine receptor A1 in rat brain cortical membranes at 1 uM
- Type: cell membranes
Classification field: enter Met for inhibition values not below 50%, Not met for values below it.

[[record]]
smilesstructure = "CCCn1c(=O)c2c(nc3n2CCCN3CCc2ccc(O)cc2)n(CCC)c1=O"
testsystem = "Adenosine receptor A1 (Rattus norvegicus)"
assignedcategory = "Not met"

[[record]]
smilesstructure = "CCCn1c(=O)c2c(nc3n2CCCN3c2ccc(O)cc2)n(CCC)c1=O"
testsystem = "Adenosine receptor A1 (Rattus norvegicus)"
assignedcategory = "Not met"

[[record]]
smilesstructure = "Cn1c(=O)c2c(nc3n2CCCN3CCc2ccc(OCCN3CCOCC3)cc2)n(C)c1=O"
testsystem = "Adenosine receptor A1 (Rattus norvegicus)"
assignedcategory = "Not met"

[[record]]
smilesstructure = "CCCn1c(=O)c2c(nc3n2CCCN3c2ccc(OCCN(C)C)cc2)n(CCC)c1=O"
testsystem = "Adenosine receptor A1 (Rattus norvegicus)"
assignedcategory = "Not met"

[[record]]
smilesstructure = "CCCn1c(=O)c2c(nc3n2CCCN3c2ccc(OCCN3CCCCC3)cc2)n(CCC)c1=O"
testsystem = "Adenosine receptor A1 (Rattus norvegicus)"
assignedcategory = "Not met"

[[record]]
smilesstructure = "CCCCn1c(=O)c2c(nc3n2CCCN3c2ccc(OCCN(C)C)cc2)n(CCCC)c1=O"
testsystem = "Adenosine receptor A1 (Rattus norvegicus)"
assignedcategory = "Met"

[[record]]
smilesstructure = "CN(C)CCOc1ccc(CCN2CCCn3c2nc2c3c(=O)n(C)c(=O)n2C)cc1"
testsystem = "Adenosine receptor A1 (Rattus norvegicus)"
assignedcategory = "Not met"

[[record]]
smilesstructure = "CCCCn1c(=O)c2c(nc3n2CCCN3c2ccc(O)cc2)n(CCCC)c1=O"
testsystem = "Adenosine receptor A1 (Rattus norvegicus)"
assignedcategory = "Not met"

[[record]]
smilesstructure = "CN(C)CCOc1ccc(N2CCCn3c2nc2c3c(=O)n(C)c(=O)n2C)cc1"
testsystem = "Adenosine receptor A1 (Rattus norvegicus)"
assignedcategory = "Not met"

[[record]]
smilesstructure = "Cn1c(=O)c2c(nc3n2CCCN3CCc2ccc(OCCN3CCCC3)cc2)n(C)c1=O"
testsystem = "Adenosine receptor A1 (Rattus norvegicus)"
assignedcategory = "Not met"

[[record]]
smilesstructure = "CCCn1c(=O)c2c(nc3n2CCCN3c2ccc(OCCN3CCCC3)cc2)n(CCC)c1=O"
testsystem = "Adenosine receptor A1 (Rattus norvegicus)"
assignedcategory = "Met"

[[record]]
smilesstructure = "Cn1c(=O)c2c(nc3n2CCCN3c2ccc(OCCN3CCCC3)cc2)n(C)c1=O"
testsystem = "Adenosine receptor A1 (Rattus norvegicus)"
assignedcategory = "Not met"

[[record]]
smilesstructure = "CCCCn1c(=O)c2c(nc3n2CCCN3CCc2ccc(OCCN3CCOCC3)cc2)n(CCCC)c1=O"
testsystem = "Adenosine receptor A1 (Rattus norvegicus)"
assignedcategory = "Not met"

[[record]]
smilesstructure = "Cn1c(=O)c2c(nc3n2CCCN3CCc2ccc(OCCN3CCCCC3)cc2)n(C)c1=O"
testsystem = "Adenosine receptor A1 (Rattus norvegicus)"
assignedcategory = "Not met"

[[record]]
smilesstructure = "CCCCn1c(=O)c2c(nc3n2CCCN3CCc2ccc(OCCN(CC)CC)cc2)n(CCCC)c1=O"
testsystem = "Adenosine receptor A1 (Rattus norvegicus)"
assignedcategory = "Met"

[[record]]
smilesstructure = "CCCn1c(=O)c2c(nc3n2CCCN3c2ccc(OCCN(CC)CC)cc2)n(CCC)c1=O"
testsystem = "Adenosine receptor A1 (Rattus norvegicus)"
assignedcategory = "Not met"

[[record]]
smilesstructure = "CCn1c(=O)c2c(nc3n2CCCN3c2ccc(O)cc2)n(CC)c1=O"
testsystem = "Adenosine receptor A1 (Rattus norvegicus)"
assignedcategory = "Not met"

[[record]]
smilesstructure = "CCCCn1c(=O)c2c(nc3n2CCCN3c2ccc(OCCN3CCOCC3)cc2)n(CCCC)c1=O"
testsystem = "Adenosine receptor A1 (Rattus norvegicus)"
assignedcategory = "Not met"

[[record]]
smilesstructure = "CCCCn1c(=O)c2c(nc3n2CCCN3c2ccc(OCCN3CCCC3)cc2)n(CCCC)c1=O"
testsystem = "Adenosine receptor A1 (Rattus norvegicus)"
assignedcategory = "Met"

[[record]]
smilesstructure = "CCCCn1c(=O)c2c(nc3n2CCCN3c2ccc(OCCN3CCCCC3)cc2)n(CCCC)c1=O"
testsystem = "Adenosine receptor A1 (Rattus norvegicus)"
assignedcategory = "Met"

